Data origin, for the record: the supplement of paper PMC12669032

- System: Eubacterium rectale
- test-description: growth AUC relative to DMSO control (median of replicates) (fraction); higher = more growth (less inhibition), active = hit call of the paper;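 active = AUC reduced over 20% with Padj below 0.05 in at least 2 of 3 replicates; inactive = otherwise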
- recorded-conditions: 20 µM; 24 h
Respond only with the outcome that fits, drawn from 1 for active, -1 for inactive

Example results:
>>> df
                                   compound  qualitative_label
0                CC#Cc1cc(C)nc(Nc2ccccc2)n1                 -1
1                              CCCN(CCC)N=O                 -1
2  COP(=S)(NC(C)C)Oc1ccc(C)cc1[N+](=O)[O-] (stereo unspecified)                 -1
3   CCCN(CCOc1c(Cl)cc(Cl)cc1Cl)C(=O)n1ccnc1                  1
4  COC(=O)[C@@H](C)N(C(=O)Cc1ccccc1)c1c(C)cccc1C                 -1

API: the following record is the query input.
Please let me know the test result on file for CCN(CC)C(=O)/C(Cl)=C(/C)OP(=O)(OC)OC . -1

====

- Tested on: Bacteroides dorei
- test-description: growth AUC relative to DMSO control (median of replicates) (fraction); higher = more growth (less inhibition), active = hit call of the paper
- recorded-conditions: 20 µM; 24 h
Listed next: entries and their corresponding growth AUC.
Number, no unit, nothing else.

compound	growth AUC
C[C@@H](Oc1ccc(Oc2cnc3cc(Cl)ccc3n2)cc1)C(=O)O	1

Which growth AUC value belongs to Clc1ccccc1-c1nnc(-c2ccccc2Cl)nn1 ? 0.974

Further, for CNc1nc(C)c(C)c(OC(=O)N(C)C)n1 ? 1.02

Further, for COS(=O)(=O)[O-].Cn1c(-c2ccccc2)cc(-c2ccccc2)[n+]1C ? 0.976

Further, for Oc1ccccc1Cl ? 1.01

Further, for Nc1nc(N)nc(Cl)n1 ? 1.01

Further, for CC(=O)O.CC(=O)O.CC(=O)O.NC(N)=NCCCCCCCCNCCCCCCCCN=C(N)N ? 0.0196

Further, for c1ccc2c(c1)ccc1c3ccccc3sc21 ? 0.969

Further, for COC(=O)NCc1cc(/C(C)=N/OCc2cccc(C)n2)ccc1Cl ? 0.946

Further, for Cc1nc(N(C)C)nc(OC(=O)N(C)C)c1C ? 1.05

====

- System: Lactobacillus paracasei
- test-description: growth AUC relative to DMSO control (median of replicates) (fraction); higher = more growth (less inhibition), active = hit call of the paper
- recorded-conditions: 20 µM; 24 h
assay-metric: growth AUC
Number, no unit, nothing else.

>>> df
                                   compound  value_measured
0  CC(C)NC(=O)N1CC(=O)N(c2cc(Cl)cc(Cl)c2)C1=O           0.991
1  O=S1(=O)OCC2C(CO1)C1(Cl)C(Cl)=C(Cl)C2(Cl)C1(Cl)Cl (centres undefined)            1.02
2  CC1(C)C(C=C(Cl)Cl)C1C(=O)OC(C#N)c1cccc(Oc2ccccc2)c1 (centres undefined)           0.951
3  CC(Oc1cc(Cl)c(Cl)cc1Cl)C(=O)O (centres undefined)               1
4                       CN(C)NC(=O)CCC(=O)O            1.02
5  CC(C)(C)C(O)/C(=C/c1ccc(Cl)cc1Cl)n1cncn1 (mixture of isomers)           0.997
6  O=C1C[C@@H]2OCC=C3CN4CC[C@]56c7ccccc7N1[C@H]5[C@H]2[C@H]3C[C@H]46            1.09
7                              Clc1ccccc1Cl            1.02
8                     Cc1ccccc1[N+](=O)[O-]           0.999
9  COP(=O)(OC)OC(Br)C(Cl)(Cl)Br (centres undefined)            1.01

Which growth AUC value belongs to COP(=O)(OC)C(O)C(Cl)(Cl)Cl (centres undefined) ? 1.02

Further, for CON(C)C(=O)Nc1ccc(Br)cc1 ? 1.02

Further, for CNC(=O)/C(=N/OC)c1ccccc1Oc1ccccc1 ? 1.05

Further, for COC(=O)c1cc(Oc2ccc(Cl)cc2Cl)ccc1[N+](=O)[O-] ? 0.928

Further, for CC1(C)CN=C(NN=C(/C=C/c2ccc(C(F)(F)F)cc2)/C=C/c2ccc(C(F)(F)F)cc2)NC1 ? 0.903

Further, for CCOP(=O)(N=C1SCC(C)S1)OCC (centres undefined) ? 0.971

Further, for COc1ccccc1N ? 1.02

Further, for CCS(=O)Cc1ccccc1OC(=O)NC (centres undefined) ? 1.01

Further, for C[C@H]1[C@H](c2ccc(Cl)cc2)SC(=O)N1C(=O)NC1CCCCC1 ? 1.03

Further, for C[C@@H]1C[C@@H]([C@H](O)CC2CC(=O)NC(=O)C2)C(=O)[C@@H](C)C1 ? 1.06

Further, for CCS(=O)(=O)Oc1ccc2c(c1)C(C)(C)CO2 ? 1

Further, for CCOP(=S)(Oc1cnc(C(C)(C)C)nc1)OC(C)C (centres undefined) ? 0.988

Further, for CCCSP(=O)(OCC)Oc1ccc(Br)cc1Cl (centres undefined) ? 1.1

Further, for O=S(=O)(c1ccccc1)c1ccccc1 ? 1.03
